Test system: MDA-MB-435 melanoma
experiment.summary: NCI-60 one-dose screen, 48 h
measurement.conditions: 10 µM unless noted
Compounds without any hit were thinned out: in the full panel of roughly 83,000, 20% have a hit. Calls of active or inactive are those of the source. Rule for the calls: active = growth percent below 10; inactive = the rest.
Choose one outcome from this list and give only that: active, inactive

Some entries whose results are on file:
CCCCNC(=S)Nc1ccc(OCc2nc3ccccc3[nH]2)cc1 : inactive
CC1(C)CC[C@]2(C(=O)Nc3ccccc3)CC[C@]3(C)C(=CCC4[C@@]5(C)C[C@@H](O)[C@H](O)[C@@](C)(CO)C5CC[C@]43C)C2C1 (some centres undefined) : inactive
Cc1sc2c(c1C)C(c1ccc(Cl)cc1)=N[C@@H](CC(=O)NCCCCCNC(=O)COc1ccc(C3CCC(=O)NC3=O)cc1)c1nnc(C)n1-2 (some centres undefined) : inactive
CN1CCN(c2ccc(C(=O)/C=C/c3ccc(Br)cc3)cc2)CC1 : inactive
COc1ccc(/C=C/c2n(Cc3ccc4ccccc4c3)c3ccccc3[n+]2Cc2ccc3ccccc3c2)cc1 : active

QUERY: Status in this test for COc1cc(/C=C/C(=O)c2ccccc2)ccc1Oc1nc(Nc2ccc(F)cc2)nc(N(C)C)n1 ?
RESULT: inactive

QUERY: Status in this test for COc1ccc(-c2nc3cc(C)ccc3n2CC(=O)N=Nc2c(O)[nH]c3ccc(Cl)cc23)cc1 ?
RESULT: active

QUERY: Status in this test for COc1cc(C2CC(c3cc(OC)c(OC)c(OC)c3)=NN2c2ccccc2)ccc1OCc1ccc(C)cc1 (centres undefined) ?
RESULT: inactive

QUERY: Status in this test for COc1ccc(-c2c(Nn3cnnn3)no[n+]2[O-])cc1 ?
RESULT: inactive

---

System: NCI/ADR-RES ovarian
experiment.summary: NCI-60 one-dose screen, 48 h
measurement.conditions: 10 µM unless noted
Experimental: Growth inhibition of the NCI/ADR-RES human […] tumor cell line is measured as a screen for anti-cancer activity. Cells are grown in 96 well plates and exposed to the test compound for 48 hours. Compounds are tested at a single concentration, which is 10^-5 M for most compounds. The reported endpoint is percent growth (GI% or GIPRCNT), where numbers from 0 - 100% represent growth inhibition, and numbers from -100% - 0 represent cell death. For example, a value of 40 represents 60% growth inhibition. […]
About 83,000 compounds went through this panel and 20% of them were active in at least one assay; those are over-represented in the sample as a whole. The source made the active and inactive calls. Rule for the calls: active = growth percent below 10; inactive = the rest.
Choose one outcome from this list and give only that: active, inactive

QUERY: Status in this test for CSc1ccc(NC(=O)c2ccc3nnn(/C(C#N)=C/c4ccccn4)c3c2)cc1 ?
RESULT: active

QUERY: Status in this test for CC1=C(C(=O)c2ccccc2)C(c2cccc(Cl)c2Cl)n2c(nc3ccccc32)N1 (centres undefined) ?
RESULT: inactive

QUERY: Status in this test for COc1ccc(C(=O)/C=C/c2cccc(Cl)c2)cc1S(N)(=O)=O ?
RESULT: inactive

QUERY: Status in this test for CCN(CC)c1ccc(/C=N/Nc2nc(-c3ccc(Br)cc3)cs2)c(O)c1 ?
RESULT: inactive

QUERY: Status in this test for COc1c(F)ccc(C(=O)Nc2ccc3nc(NC(=O)C4CCCN(S(=O)(=O)c5cccc(Cl)c5)C4)sc3c2)c1F (centres undefined) ?
RESULT: inactive

QUERY: Status in this test for Cn1cc(NC(=O)c2cc(NC(=O)c3ccc(/C=C/c4ccccc4)cc3)cn2C)cc1C(=O)NCCCN1CCOCC1 ?
RESULT: inactive

QUERY: Status in this test for Cn1cc(-c2cc(N)n3nc(-c4cn(C)c5ccccc45)cc3n2)c2cc(Br)ccc21 ?
RESULT: active

---

Test system: HS 578T breast
experiment.summary: NCI-60 one-dose screen, 48 h (100 = growth as untreated, 0 = no growth, -100 = all killed)
measurement.conditions: 10 µM unless noted
Protocol: Growth inhibition of the HS 578T human tumor cell line is measured as a screen for anti-cancer activity. Cells are grown in 96 well plates and exposed to the test compound for 48 hours. Compounds are tested at a single concentration, which is 10^-5 M for most compounds. The reported endpoint is percent growth (GI% or GIPRCNT), where numbers from 0 - 100% represent growth inhibition, and numbers from -100% - 0 represent cell death. For example, a value of 40 represents 60% growth inhibition. […]
About 83,000 compounds went through this panel and 20% of them were active in at least one assay; those are over-represented in the sample as a whole.
reported.endpoint: growth (%)
Your answer is read as %, so omit the unit and give the number.

Below: 4 molecules and their reported growth.
CC12CC[C@@H]3[C@]4(C)COC(c5cn[nH]c5-c5cccc(Br)c5)O[C@@H]4CC[C@@]3(C)[C@@H]1CC(C1=CCOC1=O)O2 (stereo not given in full) : 51.5
Cc1ccc(NCC(=O)Cn2cc(COc3ccc(C=Nc4cnc5ccccc5c4)cc3)nn2)cc1 : 106
S=c1c2ccccc2nc2n1CCc1c-2[nH]c2ccccc12 : 8.23
COc1ccc(C(=O)/C=C/c2ccccc2Br)cc1S(N)(=O)=O : 47

Now turn to the next molecule.
QUERY: // growth lookup, key: CCCCSc1nc(NCCc2c[nH]c3ccccc23)c(C#N)c(-c2ccccc2)n1
RESULT: 39.6

---

Test system: NCI-H322M lung
experiment.summary: NCI-60 one-dose screen, 48 h (100 = growth as untreated, 0 = no growth, -100 = all killed)
measurement.conditions: 10 µM unless noted
Compounds without any hit were thinned out: in the full panel of roughly 83,000, 20% have a hit.
Threshold rule: growth greater than or equal to 60% is MET; below that, NOT MET.

Some entries whose results are on file:
Cn1cc(-c2nnc(N)nc2-c2c[nH]c3ccc(F)cc23)c2cccnc21 : MET
CCC(C)(C)c1ccc(OCCCCCCN2CCN(c3ccncc3)CC2)cc1 : NOT MET

QUERY: Threshold query (growth >= 60%) on COc1cc(-c2nc3cc(Cl)c(Cl)cc3[nH]2)ccc1OCc1nnc(-c2cccs2)o1
RESULT: MET

QUERY: Threshold query (growth >= 60%) on O=c1[nH]n(C(=S)N/N=C/c2ccccc2Cl)c(=O)c2ccccc12
RESULT: NOT MET

---

Tested on: PC-3 prostate
experiment.summary: NCI-60 one-dose screen, 48 h (100 = growth as untreated, 0 = no growth, -100 = all killed)
measurement.conditions: 10 µM unless noted
This is part of a sample that, as a whole, favours compounds with a hit. Of some 83,000 tested, about 20% had one in any assay.
growth overview
Your answer is read as %, so omit the unit and give the number.

CSc1ccc(C(=O)Nc2ccc3nn(/C(C#N)=C/c4ccccn4)nc3c2)cc1 : -28
COc1ccc(C(=O)/C=C/c2ccc(OCc3ccccc3)c(OC)c2)cc1OC : 37
CC1(c2cc3cc(Cl)ccc3oc2=O)NC(=O)c2c(/C=C/C(=O)OC3CC4CCC3(C)C4(C)C)cccc2N1 (centres undefined) : 25.7
COc1ccc(/C=C/c2nc3ccccc3c(=O)n2CC(=O)Nc2ccc(OC)cc2)cc1 : 46.1
COc1cc(-c2cc(-c3cccc(OCC(=O)O)c3)[nH]c(=O)c2C#N)cc(OC)c1OC : 97.6

QUERY: // growth lookup, key: COc1c(F)ccc(C(=O)Nc2ccc3nc(NC(=O)C4CCCN(S(=O)(=O)c5cccc(C(F)(F)F)c5)C4)sc3c2)c1F (centres undefined)
RESULT: 50.3

QUERY: // growth lookup, key: CCCCSc1nc(NCCc2c[nH]c3ccccc23)c(C#N)c(-c2ccccc2)n1
RESULT: 13.2

---

Tested on: CCRF-CEM leukemia
experiment.summary: NCI-60 one-dose screen, 48 h
measurement.conditions: 10 µM unless noted
The panel holds about 83,000 compounds, 20% with a hit somewhere; the sample as a whole holds those more often. The source made the active and inactive calls. The calls were made as follows: active = growth percent below 10; inactive = the rest.
Choose one outcome from this list and give only that: active, inactive

Some entries whose results are on file:
CC(=O)c1cc(C(=O)c2ccccc2)n2c1ccc1ccccc12 : inactive
Cc1occc1C(=O)NN1C(=O)/C(=C/C=C/c2ccc([N+](=O)[O-])o2)SC1=S : active
Cc1ccc(-c2nc(C#N)c(S(=O)(=O)N3CCN(S(=O)(=O)c4ccc(Cl)cc4)CC3)o2)cc1 : inactive
CCCSc1nc(NCCc2c[nH]c3ccccc23)c(C#N)c(-c2ccc(F)cc2)n1 : inactive

# input for lookup
QUERY: Status in this test for Clc1ccc(-c2ccc(OCCCN3CCN(c4ccncc4)CC3)cc2)cc1 ?
RESULT: active

---

Test system: SNB-75 CNS
experiment.summary: NCI-60 one-dose screen, 48 h
measurement.conditions: 10 µM unless noted
About 83,000 compounds went through this panel and 20% of them were active in at least one assay; those are over-represented in the sample as a whole. Calls of active or inactive are those of the source. How the source made its calls: active means growth percent below 10; inactive means the rest.
Choose one outcome from this list and give only that: yes (active), no (inactive)

O=C(Cn1c2c(sc1=O)[C@H]1[C@@H](O)[C@@H](O)[C@H](O)[C@@H]1CS2)N1CCOCC1 : no
Cc1nc(Nc2ccccn2)sc1C(=O)CC(SCC(=O)Nc1ccc(Cl)cc1)c1ccccc1F (configuration not stated) : no
Cc1ccc(S(=O)(=O)c2nc(S(=O)(=O)c3ccc(C)cc3)c(N3CCN(C)CC3)s2)cc1 : no
CN(C)c1ccnc(NCCCSC(c2ccccc2)(c2ccccc2)c2ccccc2)c1 : no
O=C(NN1C(=O)/C(=C/C=C/c2ccc([N+](=O)[O-])o2)SC1=S)c1ccccc1O : yes
O=C(/C=C/c1cccc(OCc2ccccc2)c1)c1nc2ccccc2[nH]1 : no

QUERY: Status in this test for Cc1cc2nc3c4ccccc4n(CC4=NCCN4)c3nc2cc1C ?
RESULT: no

QUERY: Status in this test for CN1CCN(c2ccc3c(c2)nc(NNC(=O)c2cnccn2)c2cccn23)CC1 ?
RESULT: no

QUERY: Status in this test for O=C1C(=Nc2ccc(F)c(Cl)c2)c2cccc3cccc1c23 ?
RESULT: no

QUERY: Status in this test for C=C1CCC2C3(C)COC(c4ccccc4F)OC3CCC2(C)C1CC(O)C1=CCOC1=O (configuration not stated) ?
RESULT: no

QUERY: Status in this test for CC1CCCCN1CCCNC(=O)N/C(N)=N/c1nc2ccccc2s1 (configuration not stated) ?
RESULT: yes

QUERY: Status in this test for CCOC(=O)C1=C(N)N(c2ccccc2)C2=C(C(=O)CC(C)(C)C2)C1c1ccc([N+](=O)[O-])cc1 (configuration not stated) ?
RESULT: no

QUERY: Status in this test for COc1ccc(NC(=O)c2sc3nc(C(C)C)ccc3c2N)cc1 ?
RESULT: no

QUERY: Status in this test for O=S(=O)(Nc1cccc(-n2cnc3cc(-c4ccc(O)cc4)ccc32)c1)C1CC1 ?
RESULT: yes

Measured values drawn from PubChem BioAssay (NCI) for this set.
